Source of measurements: paper PMC5091360

target under test: VEGFR-3 (Mus musculus)
Sequence (P35917 25-770): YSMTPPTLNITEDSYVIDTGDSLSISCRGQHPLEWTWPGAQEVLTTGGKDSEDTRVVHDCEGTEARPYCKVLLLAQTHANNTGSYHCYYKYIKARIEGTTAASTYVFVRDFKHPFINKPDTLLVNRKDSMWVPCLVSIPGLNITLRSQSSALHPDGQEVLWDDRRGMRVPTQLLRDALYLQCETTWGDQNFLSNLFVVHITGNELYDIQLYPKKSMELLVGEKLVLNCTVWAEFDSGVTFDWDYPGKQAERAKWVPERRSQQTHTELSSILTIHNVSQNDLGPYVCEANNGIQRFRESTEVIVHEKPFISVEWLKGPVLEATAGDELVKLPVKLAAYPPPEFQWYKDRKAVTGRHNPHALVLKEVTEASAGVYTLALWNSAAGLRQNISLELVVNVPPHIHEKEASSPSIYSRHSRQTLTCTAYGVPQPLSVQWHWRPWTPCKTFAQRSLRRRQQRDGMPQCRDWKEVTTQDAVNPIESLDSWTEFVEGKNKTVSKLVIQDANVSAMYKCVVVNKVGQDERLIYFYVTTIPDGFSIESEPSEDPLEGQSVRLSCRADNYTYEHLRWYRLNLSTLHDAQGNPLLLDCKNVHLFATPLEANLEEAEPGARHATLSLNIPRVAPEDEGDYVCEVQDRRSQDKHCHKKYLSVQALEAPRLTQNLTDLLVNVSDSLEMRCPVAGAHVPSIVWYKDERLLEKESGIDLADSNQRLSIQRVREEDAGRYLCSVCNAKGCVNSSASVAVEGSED
measurement notes: competition assay, binding of phage PCAIWF to immobilized VEGFR-3
pIC50: −log10 of the molar value. Ends that are not written are not given here.
measured metric: pIC50

query: pIC50 for PSAIWF [PSAIWF] ?
result: ~3.56
